TARGET SYSTEM: TRPV1 receptor (Rattus norvegicus)
Sequence (O35433 whole entry): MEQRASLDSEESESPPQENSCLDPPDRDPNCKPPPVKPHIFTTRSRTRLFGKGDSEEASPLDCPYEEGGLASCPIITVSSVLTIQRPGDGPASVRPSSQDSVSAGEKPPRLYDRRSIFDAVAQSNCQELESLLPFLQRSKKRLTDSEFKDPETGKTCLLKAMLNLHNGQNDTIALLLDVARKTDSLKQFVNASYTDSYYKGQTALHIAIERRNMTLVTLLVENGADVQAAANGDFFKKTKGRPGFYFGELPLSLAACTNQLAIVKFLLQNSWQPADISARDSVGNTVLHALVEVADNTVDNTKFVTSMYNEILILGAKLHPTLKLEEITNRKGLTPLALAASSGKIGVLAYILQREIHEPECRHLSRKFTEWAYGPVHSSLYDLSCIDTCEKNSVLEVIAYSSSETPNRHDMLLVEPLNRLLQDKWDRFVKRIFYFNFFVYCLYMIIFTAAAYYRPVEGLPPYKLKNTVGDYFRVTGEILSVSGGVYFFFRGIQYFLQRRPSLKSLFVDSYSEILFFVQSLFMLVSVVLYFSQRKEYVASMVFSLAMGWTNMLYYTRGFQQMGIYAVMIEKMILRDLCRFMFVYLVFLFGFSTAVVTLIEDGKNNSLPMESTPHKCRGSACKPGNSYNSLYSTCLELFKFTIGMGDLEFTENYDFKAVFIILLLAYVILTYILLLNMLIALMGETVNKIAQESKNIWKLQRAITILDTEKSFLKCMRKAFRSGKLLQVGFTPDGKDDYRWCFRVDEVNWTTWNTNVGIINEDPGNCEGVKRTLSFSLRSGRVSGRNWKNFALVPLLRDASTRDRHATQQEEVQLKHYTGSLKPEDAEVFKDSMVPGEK
TEST PROTOCOL: TRPV1 modulation in DRG neurones: CGRP release in absence and presence of capsaicin (Assay 2)
Assay type: cell-based
Design: The culture used for this experiment contained sensory neurones, Schwann cells and fibroblasts; endogenous in cells; host or cells: primary rat DRG sensory neurone culture (with Schwann cells and fibroblasts)
EXPERIMENTAL PARAMETERS: 20 min; 3 μM with capsaicin 1 μM; −ve: inhibition, +ve: potentiation of capsaicin response; read-out: Effect of test compounds on capsaicin (1 μM)-induced CGRP release (%)
# cutoff 20% applies to inhibition at 3 µM; >= gives satisfied, < gives not satisfied

The examples below pair each entry with its known result.
COc1cc(CCC(=O)CC(=O)Cc2ccccc2)ccc1O [Compound 28] : satisfied
COc1cc(CCC(=O)CC(=O)c2ccc(Cl)cc2)ccc1O [Compound 21] : not satisfied
COc1cc(CCC(=O)CC(=O)C2(C)CC2)ccc1O [Compound 6] : not satisfied
COc1cc(CCC(=O)C(C)C(=O)c2ccccc2)ccc1O (centres unmarked) [Compound 11] : not satisfied

Prompt: Hi team, for COc1cc(CCC(=O)CC(=O)c2ccc(C)cc2)ccc1O [Compound 80] , is the recorded inhibition at 3 µM at or above 20%?
Response: satisfied
